Target: Glycogen synthase kinase-3 beta (Homo sapiens)
Sequence (P49841 whole entry): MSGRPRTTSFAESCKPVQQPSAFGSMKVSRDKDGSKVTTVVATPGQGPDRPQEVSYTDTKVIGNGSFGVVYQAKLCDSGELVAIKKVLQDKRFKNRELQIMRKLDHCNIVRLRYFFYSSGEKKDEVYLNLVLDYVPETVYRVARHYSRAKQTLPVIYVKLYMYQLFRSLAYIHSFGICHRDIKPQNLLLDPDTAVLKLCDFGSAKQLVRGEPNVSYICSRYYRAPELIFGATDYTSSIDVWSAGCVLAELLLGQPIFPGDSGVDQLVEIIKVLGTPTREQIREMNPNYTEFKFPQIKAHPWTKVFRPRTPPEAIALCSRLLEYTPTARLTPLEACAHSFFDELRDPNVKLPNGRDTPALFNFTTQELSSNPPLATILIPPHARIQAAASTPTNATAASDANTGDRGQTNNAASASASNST
pIC50: −log10 of the molar value.
measurement name: pIC50

[[record]]
molecule_smiles = "CCN(CC)S(=O)(=O)c1cc(Nc2nccc(-c3ccnc(-c4ccc(NC(=O)NC)cc4)c3)n2)ccc1Cl"
tested_target = "Glycogen synthase kinase-3 beta (Homo sapiens)"
obs_value = 6.48


----------
Molecular target: Glycogen synthase kinase-3 alpha (Homo sapiens)
Sequence (P49840 whole entry): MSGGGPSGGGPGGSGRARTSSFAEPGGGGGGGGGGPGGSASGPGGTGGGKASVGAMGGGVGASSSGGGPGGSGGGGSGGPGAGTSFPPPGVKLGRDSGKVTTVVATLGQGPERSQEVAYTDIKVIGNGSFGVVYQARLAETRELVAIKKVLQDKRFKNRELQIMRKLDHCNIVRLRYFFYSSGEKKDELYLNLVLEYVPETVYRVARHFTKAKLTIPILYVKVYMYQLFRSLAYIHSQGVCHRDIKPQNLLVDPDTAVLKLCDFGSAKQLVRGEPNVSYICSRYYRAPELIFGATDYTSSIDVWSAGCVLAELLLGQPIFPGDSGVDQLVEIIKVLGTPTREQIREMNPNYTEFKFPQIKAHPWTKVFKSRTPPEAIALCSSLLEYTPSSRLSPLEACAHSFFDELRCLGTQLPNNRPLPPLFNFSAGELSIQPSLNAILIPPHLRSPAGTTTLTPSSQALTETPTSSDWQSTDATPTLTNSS
pIC50: −log10 of the molar value.
measurement name: pIC50

[[record]]
molecule_smiles = "CCN(CC)S(=O)(=O)c1cc(Nc2nccc(-c3ccnc(-c4ccc(NC(=O)NC)cc4)c3)n2)ccc1Cl"
obs_value = 6.59


----------
IC50: recorded values
Molecular target: UniProtKB P06493
Sequence (P06493 whole entry): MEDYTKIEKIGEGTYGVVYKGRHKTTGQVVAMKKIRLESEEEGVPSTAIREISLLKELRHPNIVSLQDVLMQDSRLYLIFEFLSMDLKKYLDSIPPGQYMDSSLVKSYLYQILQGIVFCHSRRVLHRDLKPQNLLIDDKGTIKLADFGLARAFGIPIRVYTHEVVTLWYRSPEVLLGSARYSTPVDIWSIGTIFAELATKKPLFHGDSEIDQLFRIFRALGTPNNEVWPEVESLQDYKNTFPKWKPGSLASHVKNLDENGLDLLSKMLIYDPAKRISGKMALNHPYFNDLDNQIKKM
Test: Inhibition of CDK1
measurement name: IC50 (nM)

[[record]]
molecule_smiles = "OCCCNc1cc(-c2ccnc(Nc3cccc(Cl)c3)n2)ccn1"
tested_target = "UniProtKB P06493"
measurement_name = "IC50"
inequality_operator = "<"
obs_value = 5.2

[[record]]
molecule_smiles = "NS(=O)(=O)c1cccc(Nc2nccc(-c3ccnc(N4CC5CCC(C4)O5)c3)n2)c1"
tested_target = "UniProtKB P06493"
measurement_name = "IC50"
inequality_operator = "="
obs_value = 48

[[record]]
molecule_smiles = "NS(=O)(=O)c1cccc(Nc2nccc(-c3ccnc(NCCCO)c3)n2)c1"
tested_target = "UniProtKB P06493"
measurement_name = "IC50"
inequality_operator = "="
obs_value = 12

[[record]]
molecule_smiles = "NS(=O)(=O)c1cccc(Nc2nccc(-c3ccnc(N4CCCCC4)c3)n2)c1"
tested_target = "UniProtKB P06493"
measurement_name = "IC50"
inequality_operator = "="
obs_value = 36

[[record]]
molecule_smiles = "NS(=O)(=O)c1cccc(Nc2nccc(-c3ccnc(N4CCOCC4)c3)n2)c1"
tested_target = "UniProtKB P06493"
measurement_name = "IC50"
inequality_operator = "="
obs_value = 55

[[record]]
molecule_smiles = "CCN(CC)S(=O)(=O)c1cc(Nc2nccc(-c3ccnc(-c4ccc(NC(=O)NC)cc4)c3)n2)ccc1C"
tested_target = "UniProtKB P06493"
measurement_name = "IC50"
inequality_operator = "="
obs_value = 14000

[[record]]
molecule_smiles = "CCN(CC)c1cc(-c2ccnc(Nc3cccc(S(N)(=O)=O)c3)n2)ccn1"
tested_target = "UniProtKB P06493"
measurement_name = "IC50"
inequality_operator = "="
obs_value = 7.4

[[record]]
molecule_smiles = "CNC(=O)Nc1ccc(-c2cc(-c3ccnc(Nc4cccc(S(=O)(=O)NC)c4)n3)ccn2)cc1"
tested_target = "UniProtKB P06493"
measurement_name = "IC50"
inequality_operator = "="
obs_value = 210

[[record]]
molecule_smiles = "Clc1cccc(Nc2nccc(-c3ccnc(N4CCOCC4)c3)n2)c1"
tested_target = "UniProtKB P06493"
measurement_name = "IC50"
inequality_operator = "="
obs_value = 35

[[record]]
molecule_smiles = "Cc1cccc(Nc2nccc(-c3ccnc(N4CCOCC4)c3)n2)c1"
tested_target = "UniProtKB P06493"
measurement_name = "IC50"
inequality_operator = "="
obs_value = 100

[[record]]
molecule_smiles = "CNC(=O)Nc1ccc(-c2cc(-c3ccnc(Nc4ccc(Cl)c(S(=O)(=O)N(C)C)c4)n3)ccn2)cc1"
tested_target = "UniProtKB P06493"
measurement_name = "IC50"
inequality_operator = "="
obs_value = 1400

